# experimental.target: human androgen receptor (hAR) (Homo sapiens, UniProt P10275)
# Construct: expressed in transfected cells; host or cells: Chinese hamster ovary cells (CHO)
# Sequence (P10275 1-920): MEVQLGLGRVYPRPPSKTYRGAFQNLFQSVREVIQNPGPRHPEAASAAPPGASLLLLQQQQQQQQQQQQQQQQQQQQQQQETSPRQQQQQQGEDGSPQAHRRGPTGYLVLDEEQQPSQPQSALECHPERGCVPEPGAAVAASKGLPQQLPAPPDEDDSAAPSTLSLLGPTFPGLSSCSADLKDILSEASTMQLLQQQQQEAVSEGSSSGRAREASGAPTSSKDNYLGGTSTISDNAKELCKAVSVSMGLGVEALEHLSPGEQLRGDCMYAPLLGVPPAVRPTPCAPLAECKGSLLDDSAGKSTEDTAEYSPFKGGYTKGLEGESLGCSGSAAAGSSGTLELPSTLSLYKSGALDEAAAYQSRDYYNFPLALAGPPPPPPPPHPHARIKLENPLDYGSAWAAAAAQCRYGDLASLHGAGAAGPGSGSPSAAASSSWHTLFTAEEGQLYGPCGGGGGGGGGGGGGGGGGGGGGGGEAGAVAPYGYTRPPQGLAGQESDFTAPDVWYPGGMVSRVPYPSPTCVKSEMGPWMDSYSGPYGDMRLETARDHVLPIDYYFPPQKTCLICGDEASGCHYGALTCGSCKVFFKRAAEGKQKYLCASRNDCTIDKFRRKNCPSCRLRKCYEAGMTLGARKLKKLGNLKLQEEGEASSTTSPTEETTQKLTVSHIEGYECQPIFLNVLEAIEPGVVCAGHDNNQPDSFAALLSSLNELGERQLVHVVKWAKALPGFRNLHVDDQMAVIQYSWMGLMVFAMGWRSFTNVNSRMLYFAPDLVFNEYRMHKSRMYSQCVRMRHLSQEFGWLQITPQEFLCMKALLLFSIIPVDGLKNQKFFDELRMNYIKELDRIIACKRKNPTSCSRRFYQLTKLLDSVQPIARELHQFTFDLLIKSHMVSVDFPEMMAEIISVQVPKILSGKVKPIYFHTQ
# procedure.details: transactivative androgen agonistic activity, CHO cells transfected with hAR, MMTV-luciferase
# Type: cell-based
# Design: concentration or dose not given beside the values
# stated.conditions: compared with 5α-dihydrotestosterone; CHO-hAR, 16 h, 37° C.
Give measured Androgenic Activity (%) for each item. Keep answers brief.
// return numeric value only (unit: %, not printed)

// recorded Androgenic Activity (%) for CC1(O)CCCC2C3CCC4=CC(=O)CCC4C3CCC21C (centres unmarked) [Reference compound A] : 71.6

// recorded Androgenic Activity (%) for CC1CC2=CC(=O)CCC2C2CCC3(C)C(O)CCCC3C12 (centres unmarked) [Reference compound B] : 25.3

// recorded Androgenic Activity (%) for C[C@@H]1CC2=CC(=O)CC[C@@H]2[C@H]2CC[C@@]3(C)[C@@H](CC[C@]3(C)O)[C@@H]21 [Reference compound C] : 220

// recorded Androgenic Activity (%) for CCC1(O)CCCC2C3C(C)CC4=CC(=O)CCC4C3CCC21C (centres unmarked) : 9.9

// recorded Androgenic Activity (%) for CC1CC2=CC(=O)CCC2C2CCC3(C)C(CCCC3(C)O)C12 (centres unmarked) : 42.9
